Test: Metabolic stability in mouse liver microsomes assessed as intrinsic clearance at 1 uM
Type: ADME, Microsome
metric: intrinsic clearance (CLint) (mL/min/mg)

Look over these answered cases.
1. COc1ccc(C2(C(=O)N3C[C@H](F)C[C@@H]3C(=O)Nc3ccc4[nH]ncc4n3)CCOCC2)cc1    0.05
2. COc1ccc(C(C)(C)C(=O)N2C[C@H](F)C[C@@H]2C(=O)Nc2ccc3[nH]ncc3n2)cc1    0.38

A. COc1ccc(C2(C(=O)N3C[C@H](F)C[C@@H]3C(=O)Nc3ccc4[nH]ncc4n3)CC(C)(C)C2)cc1
B. COc1ccc(C2(C(=O)N3C[C@H](F)C[C@@H]3C(=O)Nc3ccc4[nH]ncc4n3)CC(F)(F)C2)cc1
### Prompt Exercise: compare A and B ; which one has the greater intrinsic clearance (CLint)? Field: selected label. Fill in the label of the entry you choose.
### Response A
